B1: Homeobox protein cut-like 2, residues 895 to 963; numbered along this chain, O14529 (parent)
chain: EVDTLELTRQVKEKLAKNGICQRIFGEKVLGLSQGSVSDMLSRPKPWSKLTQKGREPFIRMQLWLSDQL

# Variants of: B1
# ASSAY_NAME: abundance fitness (aPCA) (normalised: wild type 0, dead -1); higher = more abundant; growth selection in yeast, the domain comes from the species named
# EXPERIMENTAL_SETUP: Homo sapiens
READOUT: abundance fitness

[ask] What measured abundance fitness goes with L69T ?
[reply] -0.199

[ask] Sample D67E — what was its abundance fitness?
[reply] -0.017

[ask] Report abundance fitness for L65P please.
[reply] -1.03

[ask] Sample V37R — what was its abundance fitness?
[reply] -0.223

[ask] Recorded abundance fitness for I59S , please?
[reply] -0.118

[ask] Fill in: abundance fitness of P46H is ___
[reply] -0.077

[ask] Param item = K14W ; retrieve measured abundance fitness.
[reply] -0.094

[ask] Would you mind telling me what abundance fitness value was observed for Q52A ?
[reply] 0.042

[ask] # input variant: P44A ; wanted: its abundance fitness
[reply] -0.103

[ask] Which abundance fitness value is on record for G31P ?
[reply] -0.378

[ask] Item V11L has what recorded abundance fitness?
[reply] -0.27

[ask] Consider the variant A16P and give its measured abundance fitness.
[reply] -0.18

[ask] Fill in the blank: the reported abundance fitness of G26Y is ____.
[reply] -0.169

[ask] Returns the measured abundance fitness for the input variant. Input: E1T
[reply] -0.247

[ask] Given the entry L63G , report its measured abundance fitness.
[reply] -0.19

[ask] Reported abundance fitness, variant S48L : ____
[reply] -0.191

[ask] Record request: abundance fitness value, item S33A
[reply] -0.042

[ask] Need abundance fitness, item L69S
[reply] -0.052

[ask] # query: abundance fitness of entry E13D
[reply] 0.117

[ask] Requested read-out: abundance fitness. Entry: L50P
[reply] -1.04

[ask] Which abundance fitness is reported for this variant? T51F
[reply] -0.005

[ask] Need abundance fitness, item G31Q
[reply] -0.213

[ask] Would you kindly share the measured abundance fitness for V11K ?
[reply] -0.081
